# Tested system: Phenylethanolamine N-methyltransferase (Homo sapiens) (UniProt P11086)
# Sequence (P11086 whole entry, looked up): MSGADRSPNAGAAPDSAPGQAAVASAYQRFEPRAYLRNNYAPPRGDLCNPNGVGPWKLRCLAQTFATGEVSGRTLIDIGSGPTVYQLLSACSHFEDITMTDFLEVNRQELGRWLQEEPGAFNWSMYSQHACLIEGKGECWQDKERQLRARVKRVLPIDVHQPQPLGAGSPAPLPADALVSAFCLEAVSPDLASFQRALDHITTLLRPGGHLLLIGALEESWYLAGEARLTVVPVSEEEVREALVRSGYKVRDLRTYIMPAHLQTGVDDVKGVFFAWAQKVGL
# Test summary: Confirmatory Screen for Target Class Profiling of Small Molecule Inhibitors of Methyltransferases (AID 1745852)
# Conditions used: MTase-Glo luminescence, SAH detection, recombinant enzyme; measured here: PNMT max response; stronger effect = lower value
Test readout: activity

| Compound | Tested system | activity |
| --- | --- | --- |
| Nc1ncnc2c1c(I)cn2C1OC(CO)C(O)C1O (centres undefined) | Phenylethanolamine N-methyltransferase (Homo sapiens) (UniProt P11086) | -97.6% |
| COc1cc2nc(N3CCN(C)CC3)nc(NC3CCN(Cc4ccccc4)CC3)c2cc1OC | Phenylethanolamine N-methyltransferase (Homo sapiens) (UniProt P11086) | 0.903% |
| CN(C)CCNC(=O)c1cccn2c(=O)c3cc4ccccc4cc3nc12 | Phenylethanolamine N-methyltransferase (Homo sapiens) (UniProt P11086) | 3.82% |
| CN(C)CCCNc1nc(CN2CCN(C(c3ccc(Cl)cc3)c3ccc(Cl)cc3)CC2)nc2ccccc12 | Phenylethanolamine N-methyltransferase (Homo sapiens) (UniProt P11086) | -0.0137% |
| C[C@H](Cc1ccccc1)Nc1ncnc2c1ncn2[C@@H]1O[C@H](CO)[C@@H](O)[C@H]1O | Phenylethanolamine N-methyltransferase (Homo sapiens) (UniProt P11086) | -12.3% |
| O=C1NC(=O)/C(=C\c2ccc3c(c2)OC(F)(F)O3)S1 | Phenylethanolamine N-methyltransferase (Homo sapiens) (UniProt P11086) | -2.73% |
| O=[N+]([O-])c1ccc(-[n+]2nc(-c3ccccc3)nn2-c2ccc(I)cc2)cc1 | Phenylethanolamine N-methyltransferase (Homo sapiens) (UniProt P11086) | -49.2% |
| CN(Cc1ccc(C(=O)O)cc1)c1ccc(OCc2c(-c3c(Cl)cccc3Cl)noc2C2CC2)nc1C(F)(F)F | Phenylethanolamine N-methyltransferase (Homo sapiens) (UniProt P11086) | 0.284% |

Task: Return the recorded activity value; entry: `O=C1NC(=O)C(c2c[nH]c3ccccc23)=C1c1c[nH]c2ccccc12`
Output: -46.7%

Task: Return the recorded activity value; entry: CN1C2CCCC1CC(NC(=O)c1nn(C)c3ccccc13)C2 (centres undefined)
Output: 4.07%

Task: Return the recorded activity value; entry: `CN(C)CCCCCCNC(=O)c1cccc(-c2cc(O)c3ncccc3c2)c1`
Output: 4.93%

Task: Return the recorded activity value; entry: `Cc1ccn(-c2cc(Cl)ccc2[C@@H](Oc2cc(-c3ccc(C[C@H](N)C(=O)O)cc3)nc(N)n2)C(F)(F)F)n1`
Output: -1.43%

Task: Return the recorded activity value; entry: `CC(C)n1nc(Cc2cccc3ccccc23)c2c(N)ncnc21`
Output: -57.3%

Task: Return the recorded activity value; entry: c1nc(NCC2CCOC2)c2cc(-c3ccc4c(c3)OCO4)ccc2n1 (centres undefined)
Output: -63.5%
